tested on: MDA-MB-231 cells; assay: MTT viability assay, MDA-MB-231 cells; assay type: cell-based; conditions: Table 12b, value in bracket
readout_label: selectivity index (IC50 of NIH3T3 divided by IC50 on MDA-MB-231)

>  <compound>
CC(C)(C)C1CCC2(CC1)OOC1(CCC(OC(=O)N3CCNCC3)CC1)OO2 (stereo not drawn) [Compound 37f]

>  <meas_value>
(>4)

$$$$
>  <compound>
C#CCCN(CCC[N+](C)(Cc1ccccc1)Cc1ccccc1)C(=O)OC1CCC2(CC1)OOC1(CCC(C(C)(C)C)CC1)OO2.[I-] (stereo not drawn)

>  <meas_value>
(>13)

$$$$

The origin of these recorded values is patent US20240101584A1.
